Cited source: PubChem BioAssay (NCI)

System: BT-549 breast
Experiment: NCI tumour cell line growth inhibition, 48 h; in the data active means GI50 below about 0.43 µM; inactive means the rest
Just give me one of these, please: T (active), F (inactive)

O=[N+]([O-])c1cccc2nc3ccccc3c(NCCO)c12
T

## Task Just curious, what result did Cc1cc(I)cc(CN(C)CCN(C)C)c1O get here?
## Result F

## Task Fill in: this test's call for c1cc(N2CCN(c3ccc(C4=NCCN4)cc3)CC2)ccc1C1=NCCN1 is ___
## Result F

## Task Please indicate how the test categorized O=C(NC1CCCCC1)NS(=O)(=O)c1ccc(-n2nc3c(c2-c2cccs2)Cc2ccccc2-3)cc1 .
## Result F

## Task I'd appreciate the recorded outcome for CN(C)c1ccc(O)c2c1CC1CC3C(N(C)C)C(=O)C(C(N)=O)=C(O)C3(O)C(=O)C1=C2O (stereo unspecified) from this test.
## Result F

## Task Each compound tested received a call. Report the one for O=[N+]([O-])c1cc([N+](=O)[O-])c(N2CCCC2)cc1NN=C(c1ccc(O)cc1)c1ccc(O)cc1 .
## Result F
